Examples of compounds with documented IC50 follow.
System: TGF-β-stimulated SMAD3 phosphorylation in BEAS-2B cells
Test: Cellular ALK5 potency assay, inhibition of TGF-β stimulated pSMAD3 formation in BEAS-2B cells
Format: cell-based
Details: Homo sapiens, pSMAD3, TGF-β 10 ng/mL, read-out: BEAS2B pIC50 (converted)

MOLECULE_SMILES: Cc1cccc(-c2nccc(Nc3ccnc(Nc4ccc(N5CCOCC5)cn4)n3)n2)n1
ASSAY_VALUE: 25.1 to 158 nM

MOLECULE_SMILES: Cc1cccc(-c2nccc(Nc3ccnc(Nc4cc(C(=O)O[C@@H]5CCNC5)ccn4)n3)n2)n1
ASSAY_VALUE: 200 to 1260 nM

MOLECULE_SMILES: Cc1cccc(-c2nccc(Nc3ccnc(Nc4ccc(N5CCC(CNCc6ccccn6)CC5)cc4)n3)n2)n1
ASSAY_VALUE: 25.1 to 158 nM

Next compound, please.
Reported IC50, compound Cc1cccc(-c2nccc(Nc3ccnc(Nc4ccc(N5CCC(N6CCOCC6)CC5)cc4)n3)n2)n1 : ____
25.1 to 158 nM

---

Examples of compounds with documented IC50 follow.
Tested on: TGF-β-stimulated SMAD3 phosphorylation in BEAS-2B cells
Assay: Cellular ALK5 potency assay, inhibition of TGF-β stimulated pSMAD3 formation in BEAS-2B cells
Assay type: cell-based
Details: Homo sapiens, pSMAD3, TGF-β 10 ng/mL, read-out: BEAS2B pIC50 (converted)

Known results for compounds:
COMPOUND: Cc1cccc(-c2nccc(Nc3ccnc(Nc4ccc(N5CCNCC5)c(F)c4)n3)n2)n1
IC50: 25.1 to 158 nM

COMPOUND: Cc1cccc(-c2nccc(Nc3ccnc(Nc4csc(C(=O)OC[C@@H]5CCC[C@H](N)C5)c4)n3)n2)n1
IC50: 25.1 to 158 nM

COMPOUND: Cc1cccc(-c2nccc(Nc3ccnc(Nc4ccc(NS(=O)(=O)CC5CCCNC5)cc4)n3)n2)n1 (stereo not shown)
IC50: 25.1 to 158 nM

Next compound, please.
API: value(readout= IC50, system= TGF-β-stimulated SMAD3 phosphorylation in BEAS-2B cells, query= Cc1cccc(-c2nccc(Nc3ccnc(Nc4ccc(CC(=O)O)cc4)n3)n2)n1 )
1580 to 10000 nM
